Test system: L1210 leukemia ip in BDF1 mice, survival T/C
procedureDetails: NCI In Vivo Anticancer Drug Screen. Data for tumor model L1210 Leukemia (intraperitoneal) in B6D2F1 (BDF1) mice
details: endpoint: mean survival time; dose: 400.0 mg/kg/injection; schedule: Q01DX001 (ip); vehicle: carboxymethylcellulose (CMC); higher = longer survival
Toxic doses and inconclusive results are not listed.
quantityKind: T/C

As a guide, the following entries are already answered.
[
  {
    "compound": "NNc1c(Cl)c(F)c(Cl)c(F)c1Cl",
    "testedOn": "L1210 leukemia ip in BDF1 mice, survival T/C",
    "T/C": "104 % of control"
  },
  {
    "compound": "COc1ccccc1/C=C(/C)[N+](=O)[O-]",
    "testedOn": "L1210 leukemia ip in BDF1 mice, survival T/C",
    "T/C": "100 % of control"
  },
  {
    "compound": "CCCCC(CCCC)C(=O)O",
    "testedOn": "L1210 leukemia ip in BDF1 mice, survival T/C",
    "T/C": "101 % of control"
  },
  {
    "compound": "ClC1(Cl)CC2CC1C1C3CC(C4OC34)C21 (configuration not stated)",
    "testedOn": "L1210 leukemia ip in BDF1 mice, survival T/C",
    "T/C": "98 % of control"
  },
  {
    "compound": "CC(=O)OCCC/C(=C\\c1ccc2ccccc2c1)[N+](=O)[O-]",
    "testedOn": "L1210 leukemia ip in BDF1 mice, survival T/C",
    "T/C": "89 % of control"
  }
]

Query block: // returns reported T/C for input CCN1c2ccccc2S(=O)c2cc([N+](=O)[O-])ccc21 (configuration not stated)
Result block: 98 % of control

Query block: // returns reported T/C for input CCOC(=O)C(C)(N)CCOCc1ccccc1 (configuration not stated)
Result block: 104 % of control

Query block: // returns reported T/C for input CSc1ccc(NC(=O)C(F)(F)F)cc1
Result block: 95 % of control

Query block: // returns reported T/C for input COC1OC(COC(=O)c2ccccc2)C(OS(=O)(=O)c2ccc(C)cc2)C1OCc1ccccc1 (configuration not stated)
Result block: 95 % of control

Query block: // returns reported T/C for input CCCCCC/S(C)=N\S(=O)(=O)c1ccc(Br)cc1 (configuration not stated)
Result block: 114 % of control

Query block: // returns reported T/C for input C=CCOC(=O)Nc1ccc(S(=O)(=O)CC)cc1
Result block: 91 % of control

Query block: // returns reported T/C for input c1ccc(C2C(c3ccccc3)N2c2ccccc2)cc1 (configuration not stated)
Result block: 103 % of control

Query block: // returns reported T/C for input Oc1ccccc1C1N(Cc2ccc(N(CCCl)CCCl)cc2Cl)CCCN1Cc1ccc(N(CCCl)CCCl)cc1Cl
Result block: 102 % of control

Query block: // returns reported T/C for input CN(CC(=O)C(C(N)=O)c1ccccc1)c1ccccc1 (configuration not stated)
Result block: 102 % of control

Query block: // returns reported T/C for input COC1OC(COC(=O)c2ccc([N+](=O)[O-])cc2)C(N(C)C(C)=O)C1OC(=O)c1ccc([N+](=O)[O-])cc1 (configuration not stated)
Result block: 93 % of control

Query block: // returns reported T/C for input CC(=O)Nc1cc2c(cc1[N+](=O)[O-])-c1ccc(F)cc1C2
Result block: 91 % of control

Query block: // returns reported T/C for input Cc1cc(=O)[nH]c(N=Nc2c(O)[nH]c3ccccc23)n1
Result block: 88 % of control

Query block: // returns reported T/C for input CSc1cc2c(cc1NC(C)=O)C(=O)c1ccccc1-2
Result block: 109 % of control

Query block: // returns reported T/C for input O=C1c2ccccc2-c2cc(Br)c(N=C(NO)C(F)(F)F)cc21
Result block: 108 % of control

Query block: // returns reported T/C for input COc1cc([C@@H]2c3cc4c(cc3[C@H](O)[C@H]3COC(=O)[C@@H]23)OCO4)cc(OC)c1OC
Result block: 102 % of control

Query block: // returns reported T/C for input Oc1ccccc1C=Nc1cnc2ccccc2c1
Result block: 95 % of control

Query block: // returns reported T/C for input CCOC(=O)CNC(=O)C(=[N+]=[N-])C(=O)COc1ccc(F)cc1
Result block: 90 % of control

Query block: // returns reported T/C for input Cc1ccc(N=Nc2c(O)ccc3ccccc23)cc1
Result block: 91 % of control

Query block: // returns reported T/C for input ClCCc1ccc(-n2cnc3c(Cl)ncnc32)cc1
Result block: 98 % of control

Query block: // returns reported T/C for input Cc1ncc(COCc2ccccc2)c(CO)c1OCc1ccccc1
Result block: 94 % of control

Query block: // returns reported T/C for input CNC(=O)Oc1ccc(C2CCCCC2)cc1
Result block: 92 % of control

Query block: // returns reported T/C for input Nc1ccc([N+](=O)[O-])c(-c2ccccc2)c1[N+](=O)[O-]
Result block: 91 % of control
